Just for reference, the supplement of paper PMC13380429 is where these values come from.

Test system: HepG2
Experiment: cell viability relative to DMSO; higher = less toxic
Conditions: 72 h; 1000 nM

compound: COc1cc(COc2cc(N)c(Cl)cc2C(=O)CCC2CCN(CCNS(C)(=O)=O)CC2)cc(OC)c1
unit: %
cell viability: 92.5
--
compound: C[C@]12CCC(=O)C=C1CC[C@@H]1[C@@H]2C(=O)C[C@]2(C)C(=O)CC[C@@H]12
unit: %
cell viability: 97.7
--
compound: COC(=O)Nc1nc2cc(C(=O)c3ccccc3)ccc2[nH]1
unit: %
cell viability: 44.3
--
compound: CC(=O)c1cc([N+](=O)[O-])c(Sc2ccc(F)cc2F)s1
unit: %
cell viability: 100
--
compound: Oc1ccc(C(O)CNCCCCCCNCC(O)c2ccc(O)c(O)c2)cc1O (centres undefined) [hexoprenaline]
unit: %
cell viability: 93.2
--
compound: N=C(N)NCCN1CCCCCCC1
unit: %
cell viability: 106
--
compound: CC(NC(C)(C)C)C(=O)c1cccc(Cl)c1 (centres undefined)
unit: %
cell viability: 105
--
compound: O=C(O)CC1CC(c2ccccc2)=NO1 (centres undefined)
unit: %
cell viability: 104
--
compound: O=C(Nc1c[nH]nc1-c1nc2ccc(CN3CCOCC3)cc2[nH]1)NC1CC1
unit: %
cell viability: 57.3
--
compound: CC(C)(NS(=O)(=O)c1ccc(Oc2ccc(F)cc2)cc1)C(=O)NO
unit: %
cell viability: 110
--
compound: O=C(Cc1ccc(-c2ccc(OCCN3CCOCC3)cc2)cn1)NCc1ccccc1
unit: %
cell viability: 34.5
--
compound: CO[C@H]1[C@H](O)[C@@H](O)[C@@H](O)[C@H](O)[C@@H]1O
unit: %
cell viability: 80
--
compound: CC(C)c1ccc(C(=O)c2cccs2)c(SCCCCCCCCN(C)C)n1
unit: %
cell viability: 103
--
compound: Cc1nc2sccn2c(=O)c1CCN1CCC(=C(c2ccccc2)c2ccc(F)cc2)CC1
unit: %
cell viability: 96.9

----------
System: HepG2
Assay: cell viability relative to DMSO; higher = less toxic
Details: 72 h; 100 nM
Quick list: cell viability per entry.
value.kind: cell viability (%)

compound: Cc1cnc(-c2cc(N3CCN(C(=O)CCS(C)(=O)=O)CC3)ncc2Cl)c(C)c1
value.kind: cell viability
unit: %
experimental.value: 98.6
//
compound: O=C1[O][SbH]23[O]C(=O)C([O]2)C2[O][SbH]4([O]C(=O)C([O]4)C1[O]3)[O]C2=O [antimonyl]
value.kind: cell viability
unit: %
experimental.value: 101
//
compound: CCC1(c2c[nH]cn2)Cc2ccccc2C1
value.kind: cell viability
unit: %
experimental.value: 111
//
compound: CC(=O)[C@H]1CC[C@H]2[C@@H]3CC=C4C[C@@H](O)CC[C@]4(C)[C@H]3CC[C@]12C
value.kind: cell viability
unit: %
experimental.value: 99.6
//
compound: CO[C@H]1[C@H](O)[C@@H](O)[C@@H](O)[C@H](O)[C@@H]1O
value.kind: cell viability
unit: %
experimental.value: 85.4
//
compound: CC(C)c1cc(C(C)C)c(CC(=O)NS(=O)(=O)Oc2c(C(C)C)cccc2C(C)C)c(C(C)C)c1
value.kind: cell viability
unit: %
experimental.value: 106
//
compound: C[S+](CC[C@H](N)C(=O)O)C[C@H]1O[C@@H](n2cnc3c(N)ncnc32)[C@H](O)[C@@H]1O (some centres not stated)
value.kind: cell viability
unit: %
experimental.value: 89.9

----------
Test system: Vero E6
Experiment: cell viability relative to DMSO; higher = less toxic
Settings: 72 h; 10000 nM
Quick list: cell viability per entry.

compound: COC[C@H]1OC(=O)c2coc3c2[C@@]1(C)C1=C(C3=O)[C@@H]2CCC(=O)[C@@]2(C)C[C@H]1OC(C)=O
unit: %
cell viability: 76.8

compound: O=C(O[C@H]1[C@H](OC(=O)c2cccnc2)[C@@H](OC(=O)c2cccnc2)[C@H](OC(=O)c2cccnc2)[C@@H](OC(=O)c2cccnc2)[C@H]1OC(=O)c1cccnc1)c1cccnc1 [inositol-hexanicotinate]
unit: %
cell viability: 113

compound: C[C@]12CC[C@H](O)CC1=CC[C@@H]1[C@@H]2CC[C@]2(C)C(n3cnc4ccccc43)=CC[C@@H]12
unit: %
cell viability: 74.5

compound: CCN1CCN(c2ccc(Nc3cc(N(C)C(=O)Nc4c(Cl)c(OC)cc(OC)c4Cl)ncn3)cc2)CC1
unit: %
cell viability: 66.2

----------
Test system: Vero E6
Test: cell viability relative to DMSO; higher = less toxic
Conditions: 72 h; 10 nM
Quick list: cell viability per entry.

molecule: COc1cc(-c2cc(-c3cccc(O)c3)cnc2N)cc(OC)c1OC
cell viability, %: 103
//
molecule: COc1ccccc1N1CCN(CCn2c(=O)[nH]c3c([nH]c4ccccc43)c2=O)CC1 [3-MPPI]
cell viability, %: 104
//
molecule: CC(C)c1ccc(C(=O)c2cccs2)c(SCCCCCCCCN(C)C)n1
cell viability, %: 99.8
//
molecule: COc1cc(COc2cc(N)c(Cl)cc2C(=O)CCC2CCN(CCNS(C)(=O)=O)CC2)cc(OC)c1
cell viability, %: 97.8
//
molecule: C[C@]12CCC(=O)C=C1CC[C@@H]1[C@@H]2CC[C@@]2(C)[C@H]1CC[C@]2(C)O [17-alpha-Methyltestosterone]
cell viability, %: 97.4
//
molecule: C#C[C@]1(OC(C)=O)CC[C@H]2[C@@H]3CCC4=CC(=O)CC[C@@H]4[C@H]3CC[C@@]21C [norethindrone-acetate]
cell viability, %: 108

----------
System: U2OS
Test: cell viability relative to DMSO; higher = less toxic
Conditions: 72 h; 100 nM
value.kind: cell viability (%)

smiles.input: CC1(C)S[C@@H]2[C@H](N3C(=O)[C@@H](c4ccccc4)NC3(C)C)C(=O)N2[C@H]1C(=O)O
value.kind: cell viability
unit: %
experimental.value: 101
--
smiles.input: CCCCCCCCCCCCCCCCCCOP(=O)([O-])OC1CC[N+](C)(C)CC1
value.kind: cell viability
unit: %
experimental.value: 103
--
smiles.input: CC(C)(C)Sc1c(CC(C)(C)C(=O)O)n(Cc2ccc(Cl)cc2)c2ccc(OCc3ccc4ccccc4n3)cc12
value.kind: cell viability
unit: %
experimental.value: 104
--
smiles.input: O=C(O)CCNc1cc(N2CCc3ccccc3CC2)nc(-c2ccccn2)n1
value.kind: cell viability
unit: %
experimental.value: 91.9
--
smiles.input: N#Cc1cc(F)cc(-c2nc(-c3ccc(F)cn3)no2)c1
value.kind: cell viability
unit: %
experimental.value: 96.7

----------
Tested on: HepG2
Assay: cell viability relative to DMSO; higher = less toxic
Conditions: 72 h; 100 nM
value.kind: cell viability (%)

smiles.input: C=C[C@]1(C)C[C@@H](OC(=O)CSC(C)(C)CNC(=O)[C@H](N)C(C)C)[C@]2(C)[C@H](C)CC[C@]3(CCC(=O)[C@H]32)[C@@H](C)[C@@H]1O
value.kind: cell viability
experimental.value: 93.7

smiles.input: N[C@@H](CCC(=O)N[C@@H](CS)C(=O)NCC(=O)O)C(=O)O
value.kind: cell viability
experimental.value: 97.3

smiles.input: CN1[C@H]2C[C@H](OC(=O)[C@H](CO)c3ccccc3)C[C@@H]1[C@@H](O)C2
value.kind: cell viability
experimental.value: 79.8

smiles.input: Oc1ccc(C2(c3ccccc3F)CCC(F)(F)CC2)cc1
value.kind: cell viability
experimental.value: 100

smiles.input: CCn1cc(-c2cccc(C(F)(F)F)c2)c2sc(C(=N)NC3CCS(=O)(=O)CC3)cc2c1=O
value.kind: cell viability
experimental.value: 98.6

----------
System: HepG2
Experiment: relative viability EC50 (midpoint between 100% and the lowest measured viability); higher = less toxic
Settings: 72 h
value.kind: relative viability EC50

molecule: O=C(Oc1ccc(Br)cc1)N1CCN2CCC1CC2
tgt: HepG2
experimental.value: > 10 µM
--
molecule: Cc1cc(S(=O)(=O)O)c2c(C)ccc(C(C)C)cc1-2 [sodium-gualenate]
tgt: HepG2
experimental.value: > 10 µM
--
molecule: CC(=O)[C@H]1CC[C@H]2[C@@H]3CC=C4C[C@@H](O)CC[C@]4(C)[C@H]3CC[C@]12C
tgt: HepG2
experimental.value: > 10 µM
--
molecule: CN(C)C1CCN(C(=O)c2ccc(NC(=O)Nc3ccc(-c4nc(N5CCOCC5)nc(N5CCOCC5)n4)cc3)cc2)CC1
tgt: HepG2
experimental.value: > 10 µM
--
molecule: O=C(Cc1ccc(-c2ccc(OCCN3CCOCC3)cc2)cn1)NCc1ccccc1
tgt: HepG2
experimental.value: 0.143 µM
--
molecule: O=C(O)C1=CCCN(CCON=C(c2ccccc2)c2ccccc2)C1
tgt: HepG2
experimental.value: > 10 µM
--
molecule: Cc1c(Cl)cccc1S(=O)(=O)Nc1nc(CC(=O)N2CCN(C)CC2)cs1
tgt: HepG2
experimental.value: > 10 µM
--
molecule: S=C(S)N1CCCC1 [pyrrolidine-dithiocarbamate]
tgt: HepG2
experimental.value: 3.53 µM
